target: Ylr278c (UniProt Q05854); assay: PBM E-score (8-mer binding enrichment) (E-score (-0.5 to 0.5)); higher = stronger / more preferred TF binding; conditions: protein concentration: 200 nM; construct: GST-DNA-binding domain
Sequence (Q05854 whole entry, the tested form may be a part): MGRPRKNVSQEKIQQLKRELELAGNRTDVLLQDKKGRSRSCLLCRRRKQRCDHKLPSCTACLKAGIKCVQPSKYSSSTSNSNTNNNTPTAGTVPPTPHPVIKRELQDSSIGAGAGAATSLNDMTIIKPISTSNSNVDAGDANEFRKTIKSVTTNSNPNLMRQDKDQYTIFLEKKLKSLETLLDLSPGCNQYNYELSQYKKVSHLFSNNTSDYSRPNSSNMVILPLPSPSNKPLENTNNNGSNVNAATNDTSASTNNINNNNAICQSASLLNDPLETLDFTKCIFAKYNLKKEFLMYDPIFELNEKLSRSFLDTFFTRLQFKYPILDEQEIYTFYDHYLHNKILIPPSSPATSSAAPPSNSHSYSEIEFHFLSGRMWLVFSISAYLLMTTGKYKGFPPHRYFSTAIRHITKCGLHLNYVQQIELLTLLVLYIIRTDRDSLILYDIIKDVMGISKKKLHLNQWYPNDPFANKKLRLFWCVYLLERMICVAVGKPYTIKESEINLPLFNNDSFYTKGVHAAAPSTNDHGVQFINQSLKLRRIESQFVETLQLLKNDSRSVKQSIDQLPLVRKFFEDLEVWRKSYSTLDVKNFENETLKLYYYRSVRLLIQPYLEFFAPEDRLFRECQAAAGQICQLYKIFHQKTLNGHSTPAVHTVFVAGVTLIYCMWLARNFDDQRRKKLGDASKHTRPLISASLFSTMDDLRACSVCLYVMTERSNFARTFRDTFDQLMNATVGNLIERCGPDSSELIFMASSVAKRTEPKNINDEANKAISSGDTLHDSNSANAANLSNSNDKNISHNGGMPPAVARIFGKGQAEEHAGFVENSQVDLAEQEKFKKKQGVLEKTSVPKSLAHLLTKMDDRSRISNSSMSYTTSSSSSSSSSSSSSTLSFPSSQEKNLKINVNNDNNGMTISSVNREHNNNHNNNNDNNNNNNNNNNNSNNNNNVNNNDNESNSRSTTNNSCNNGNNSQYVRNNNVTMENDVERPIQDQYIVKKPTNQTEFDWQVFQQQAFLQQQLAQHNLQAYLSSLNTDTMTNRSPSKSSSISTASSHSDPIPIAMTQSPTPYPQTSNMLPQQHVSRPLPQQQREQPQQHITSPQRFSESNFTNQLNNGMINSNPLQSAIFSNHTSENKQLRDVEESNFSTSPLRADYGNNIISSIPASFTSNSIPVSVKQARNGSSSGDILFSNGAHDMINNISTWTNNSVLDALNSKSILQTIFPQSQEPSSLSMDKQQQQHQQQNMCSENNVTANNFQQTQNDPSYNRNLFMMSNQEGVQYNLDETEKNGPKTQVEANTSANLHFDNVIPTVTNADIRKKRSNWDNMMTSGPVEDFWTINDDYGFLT
Whole data set: some 33,000 sequences, median “E-score (-0.5 to 0.5)” near -0.054, cut for the highest 2% near 0.39. The list comes from a sample in which the highest values are over-represented; it also holds close analogues and randomly drawn sequences.
Below is a list of entries, each paired with its recorded PBM E-score value.
Answer as a number with no unit attached.

IN: Look up PBM E-score for this sequence: "GTCCGTGA"
OUT: 0.278
